Recorded EC50, one value per entry.
# assay-target: DLL4 (human, UniProt Q9NR61)
# Sequence (Q9NR61 27-524): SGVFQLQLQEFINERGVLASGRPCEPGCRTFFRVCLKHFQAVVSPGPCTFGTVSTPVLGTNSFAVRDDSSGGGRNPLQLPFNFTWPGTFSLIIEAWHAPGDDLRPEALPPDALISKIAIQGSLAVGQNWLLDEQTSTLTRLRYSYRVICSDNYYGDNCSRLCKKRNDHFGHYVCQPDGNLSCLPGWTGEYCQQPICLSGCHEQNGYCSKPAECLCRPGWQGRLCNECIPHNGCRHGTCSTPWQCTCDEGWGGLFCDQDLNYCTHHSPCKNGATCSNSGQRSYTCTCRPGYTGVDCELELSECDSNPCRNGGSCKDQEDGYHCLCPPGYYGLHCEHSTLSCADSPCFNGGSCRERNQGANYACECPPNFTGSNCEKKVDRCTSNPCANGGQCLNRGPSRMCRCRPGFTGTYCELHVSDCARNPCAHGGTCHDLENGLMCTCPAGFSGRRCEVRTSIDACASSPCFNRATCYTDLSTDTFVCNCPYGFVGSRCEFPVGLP
# experiment-description: ELISA
Write down the numeric answer in nM and omit the unit.

>  <binder>
DVD534 DLL4 arm (antibody, V domains shown, DVD-Ig inner) VH: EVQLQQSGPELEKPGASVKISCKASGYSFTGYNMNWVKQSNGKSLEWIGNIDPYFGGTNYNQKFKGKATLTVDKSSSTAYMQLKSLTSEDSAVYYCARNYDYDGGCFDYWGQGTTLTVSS VL: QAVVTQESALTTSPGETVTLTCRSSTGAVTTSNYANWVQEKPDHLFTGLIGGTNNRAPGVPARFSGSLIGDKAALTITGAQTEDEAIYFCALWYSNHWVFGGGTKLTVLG

>  <EC50 (nM)>
0.47

$$$$

--- query ---
Data request: Assign EC50 to the following record: DVD456 DLL4 arm (antibody, V domains shown, DVD-Ig inner) VH: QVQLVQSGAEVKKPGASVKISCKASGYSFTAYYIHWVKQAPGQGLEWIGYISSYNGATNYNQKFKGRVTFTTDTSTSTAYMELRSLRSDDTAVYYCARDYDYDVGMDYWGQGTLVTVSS VL: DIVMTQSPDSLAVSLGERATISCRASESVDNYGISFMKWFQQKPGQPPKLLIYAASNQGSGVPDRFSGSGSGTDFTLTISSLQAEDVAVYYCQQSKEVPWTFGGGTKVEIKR
Data returned: 2.48
